target: Serine/threonine-protein kinase B-raf (Homo sapiens) (UniProt P15056); experiment: Inhibition of BRAF (unknown origin) at 1 uM measured after 1 hr relative to control
Sequence (P15056 whole entry): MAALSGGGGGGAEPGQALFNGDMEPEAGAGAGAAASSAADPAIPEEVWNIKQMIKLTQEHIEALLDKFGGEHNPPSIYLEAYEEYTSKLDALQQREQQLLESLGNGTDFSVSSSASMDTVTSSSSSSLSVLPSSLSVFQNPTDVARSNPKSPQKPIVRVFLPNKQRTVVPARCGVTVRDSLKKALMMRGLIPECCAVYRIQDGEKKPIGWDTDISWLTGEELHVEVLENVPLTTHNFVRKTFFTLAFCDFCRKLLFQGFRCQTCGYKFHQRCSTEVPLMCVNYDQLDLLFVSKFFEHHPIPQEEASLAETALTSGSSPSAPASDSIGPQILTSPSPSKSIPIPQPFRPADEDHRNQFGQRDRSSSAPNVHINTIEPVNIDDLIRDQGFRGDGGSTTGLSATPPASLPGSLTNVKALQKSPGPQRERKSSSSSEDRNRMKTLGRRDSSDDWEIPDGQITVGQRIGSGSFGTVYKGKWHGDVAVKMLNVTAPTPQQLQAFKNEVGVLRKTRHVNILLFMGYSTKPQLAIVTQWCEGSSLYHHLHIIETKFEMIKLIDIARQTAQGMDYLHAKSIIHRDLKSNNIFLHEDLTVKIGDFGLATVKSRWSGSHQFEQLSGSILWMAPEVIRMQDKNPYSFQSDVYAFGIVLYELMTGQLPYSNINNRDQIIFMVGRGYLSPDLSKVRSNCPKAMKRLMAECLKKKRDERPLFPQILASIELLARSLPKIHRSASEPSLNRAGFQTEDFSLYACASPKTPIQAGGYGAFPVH
Decision: inhibition >= 80% yields Yes, all other cases yield No.

COMPOUND: C=CC(=O)N1CCC2(CC1)CNC(=O)c1cc(-c3ccnc(Nc4ccccc4OC)n3)[nH]c12
TARGET UNDER TEST: Serine/threonine-protein kinase B-raf (Homo sapiens) (UniProt P15056)
ASSIGNED CATEGORY: Yes
--
COMPOUND: C=CC(=O)Nc1cc(Nc2nccc(-c3cn(C)c4ccccc34)n2)c(OC)cc1N(C)CCN(C)C [OSIMERTINIB]
TARGET UNDER TEST: Serine/threonine-protein kinase B-raf (Homo sapiens) (UniProt P15056)
ASSIGNED CATEGORY: No
--
COMPOUND: C=CC(=O)N1CCC2(CC1)CNC(=O)c1cc(-c3nc(Nc4ccccc4OC)ncc3C)[nH]c12
TARGET UNDER TEST: Serine/threonine-protein kinase B-raf (Homo sapiens) (UniProt P15056)
ASSIGNED CATEGORY: Yes
--
COMPOUND: C=CC(=O)N1CCC2(CC1)CNC(=O)c1cc(-c3ccnc(Nc4ccccc4OC)c3)[nH]c12
TARGET UNDER TEST: Serine/threonine-protein kinase B-raf (Homo sapiens) (UniProt P15056)
ASSIGNED CATEGORY: No
--
COMPOUND: C=CC(=O)N1CCC2(CC1)CNC(=O)c1cc(-c3ccnc(Nc4ccccc4OC(C)C)n3)[nH]c12
TARGET UNDER TEST: Serine/threonine-protein kinase B-raf (Homo sapiens) (UniProt P15056)
ASSIGNED CATEGORY: No

###

target: Insulin-like growth factor 1 receptor (Homo sapiens); experiment: Inhibition of IGF1R (unknown origin) at 1 uM measured after 1 hr relative to control

MOLECULE SMILES: C=CC(=O)Nc1cc(Nc2nccc(-c3cn(C)c4ccccc34)n2)c(OC)cc1N(C)CCN(C)C
inhibition (%): 31
//
MOLECULE SMILES: C=CC(=O)N1CCC2(CC1)CNC(=O)c1cc(-c3ccnc(Nc4ccccc4OC)n3)[nH]c12
inhibition (%): 3
//
MOLECULE SMILES: C=CC(=O)N1CCC2(CC1)CNC(=O)c1cc(-c3ccnc(Nc4ccccc4OC)c3)[nH]c12
inhibition (%): 0
//
MOLECULE SMILES: C=CC(=O)N1CCC2(CC1)CNC(=O)c1cc(-c3ccnc(Nc4ccccc4OC(C)C)n3)[nH]c12
inhibition (%): 14
//
MOLECULE SMILES: C=CC(=O)N1CCC2(CC1)CNC(=O)c1cc(-c3nc(Nc4ccccc4OC)ncc3C)[nH]c12
inhibition (%): 69

###

biological target: Cyclin-dependent kinase 1/cyclin B1 (Homo sapiens) (UniProt P06493+P14635); assay: Inhibition of cdk1/Cyclin B (unknown origin) at 1 uM measured after 1 hr relative to control; type: protein-complex assay
Sequence (P06493 whole entry, looked up): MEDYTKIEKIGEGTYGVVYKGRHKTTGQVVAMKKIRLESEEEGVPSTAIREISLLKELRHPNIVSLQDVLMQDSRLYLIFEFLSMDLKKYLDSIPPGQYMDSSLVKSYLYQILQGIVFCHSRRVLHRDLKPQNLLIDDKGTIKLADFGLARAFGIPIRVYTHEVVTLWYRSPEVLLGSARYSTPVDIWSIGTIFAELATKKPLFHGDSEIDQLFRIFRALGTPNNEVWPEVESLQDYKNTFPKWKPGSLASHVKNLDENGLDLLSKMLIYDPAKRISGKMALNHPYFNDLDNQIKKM
Sequence (P14635 whole entry, looked up): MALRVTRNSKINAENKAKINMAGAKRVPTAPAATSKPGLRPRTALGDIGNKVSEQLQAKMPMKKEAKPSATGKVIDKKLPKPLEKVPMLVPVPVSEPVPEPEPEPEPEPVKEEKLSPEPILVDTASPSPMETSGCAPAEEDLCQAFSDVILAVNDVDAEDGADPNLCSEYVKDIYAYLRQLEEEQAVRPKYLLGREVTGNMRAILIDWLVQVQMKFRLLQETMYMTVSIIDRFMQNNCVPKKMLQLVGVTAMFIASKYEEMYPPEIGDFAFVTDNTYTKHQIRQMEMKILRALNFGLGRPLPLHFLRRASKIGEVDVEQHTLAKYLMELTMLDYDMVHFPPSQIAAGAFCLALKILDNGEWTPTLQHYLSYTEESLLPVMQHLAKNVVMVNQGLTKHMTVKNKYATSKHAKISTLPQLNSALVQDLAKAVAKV

MOLECULE SMILES: C=CC(=O)Nc1cc(Nc2nccc(-c3cn(C)c4ccccc34)n2)c(OC)cc1N(C)CCN(C)C
TARGET UNDER TEST: Cyclin-dependent kinase 1/cyclin B1 (Homo sapiens) (UniProt P06493+P14635)
inhibition / %: 5

MOLECULE SMILES: C=CC(=O)N1CCC2(CC1)CNC(=O)c1cc(-c3ccnc(Nc4ccccc4OC(C)C)n3)[nH]c12
TARGET UNDER TEST: Cyclin-dependent kinase 1/cyclin B1 (Homo sapiens) (UniProt P06493+P14635)
inhibition / %: 8

MOLECULE SMILES: C=CC(=O)N1CCC2(CC1)CNC(=O)c1cc(-c3ccnc(Nc4ccccc4OC)c3)[nH]c12
TARGET UNDER TEST: Cyclin-dependent kinase 1/cyclin B1 (Homo sapiens) (UniProt P06493+P14635)
inhibition / %: 12

MOLECULE SMILES: C=CC(=O)N1CCC2(CC1)CNC(=O)c1cc(-c3nc(Nc4ccccc4OC)ncc3C)[nH]c12
TARGET UNDER TEST: Cyclin-dependent kinase 1/cyclin B1 (Homo sapiens) (UniProt P06493+P14635)
inhibition / %: 89

MOLECULE SMILES: C=CC(=O)N1CCC2(CC1)CNC(=O)c1cc(-c3ccnc(Nc4ccccc4OC)n3)[nH]c12
TARGET UNDER TEST: Cyclin-dependent kinase 1/cyclin B1 (Homo sapiens) (UniProt P06493+P14635)
inhibition / %: 71
